Test: Particle size and polydispersity index of nanoparticle compositions (Zetasizer Nano ZS)
Assay type: physicochemical
Conditions: Table 1A; lipid:DSPC:cholesterol:PEG-DMG 50:10:38.5:1.5 mol %
Kindly state Size for each of the entries shown.
Please provide the amount together with its unit, number first.

Below are worked cases with known answers.
* CCCCCCCCCOC(=O)CCCCCCCN(CCO)CCCCCCCCCOC(=O)C(CCCCCC)CCCCCCCC (stereo not shown) | 85.6 nm
* CCCCCCCCCOC(=O)CCCCCCCN(CCO)CCCCCCC/C=C\C(CCCCCCCC)CCCCCCCC | 62.6 nm
* CCCCCCCCC(CCC)OC(=O)CCCCCCCN(CCO)CCCCCCCC(=O)OC(CCCCCCCC)CCCCCCCC (stereo not shown) | 68.4 nm
* CCCC/C=C\CCC(CC/C=C\CCCC)OC(=O)CCCCCCCN(CCO)CCCCCC(=O)OCCCCCCCCCCC | 82.1 nm
* CCCCCCCCCOC(=O)CCCCCCCN(CCCCCCCC(=O)OC(CCCCCCCC)CCCCCCCC)CCCn1ccnn1 | 71.6 nm

List reported Size for each of these compounds:
1. CCCCCCCCCOC(=O)CCCCCCCN(CCCCCCCC(=O)OC(CCCCCCCC)CCCCCCCC)CCCn1cnc2c(N)ncnc21
2. CCCCCCCCCN(CCO)CCCCCCCC(=O)OC(CCCCCCCC)CCCCCCCC

63.3 nm
97.5 nm

* * *

Assay: Particle size and polydispersity index of nanoparticle compositions (Zetasizer Nano ZS)
Format: physicochemical
Conditions: Table 1A; lipid:DSPC:cholesterol:PEG-DMG 50:10:38.5:1.5 mol %
observed.property: Size (nm)
Answers are plain numbers, in nm.

Below are worked cases with known answers.
• CCCCCCCCC(CCCCCCCC)OC(=O)CCCCCCCN(CCO)CCCC(=O)OC1CCC(CCCCC)CC1 (stereo not shown) = 77
• CCCCCCCCCOC(=O)CCCCCCCN(CCCCCCCC(=O)OC(CCCCCCCC)CCCCCCCC)CCCn1ccc(N)nc1=O = 64.5
• CCCCCCCCCOC(=O)CCCCCCCN(CCO)CCCCCCCC(=O)Oc1ccc(CCCCC)c(CCCCC)c1 = 72.1
• CCCCCCCCC(CCC)OC(=O)CCCN(CCO)CCCCCCCC(=O)OC(CCCCCCCC)CCCCCCCC (stereo not shown) = 65.6
• CCCCCCCCC(CCCCCCCC)OC(=O)CCCCCCCN(CCO)CCCC(=O)OCCCCC = 130.5

List reported Size for each of these compounds:
1. CCCCCC=CCC=CCCCCCCCCC(CCCCCCCCC=CCC=CCCCCC)OC(=O)CCCN(C)C (stereo not shown) [MC3, reference compound]
2. CCCCCCCCCOC(=O)C(C)CCCCCCN(CCO)CCCCCCCOC(=O)C(CCCCCCCC)CCCCCCCC (stereo not shown)

1. 79.7
2. 88.3

* * *

System: modified luciferase
Assay: Luciferase expression in liver, lung, spleen and femur 6 hours after intravenous administration to mice
Assay type: in vivo
Details: lung, 6 hours after intravenous 0.5 mpk, mice
Kindly state Total Flux, Lung for each of the entries shown.
Answers are plain numbers.

Below are worked cases with known answers.
• CCCCCCCCC(CC)OC(=O)CCCCCN(CCO)CCCCCCCC(=O)OC(CCCCCCCC)CCCCCCCC (centres unmarked) = 3.92E+06
• CCCCCCCCC(CCCCCCCC)OC(=O)CCCCCCCN(CCO)CCCCCCCC(=O)OC1CCC(CCCCC)CC1 (centres unmarked) = 4.20E+06
• CCCCCCCCCOC(=O)CCCCCCCN(CCCCO)CCCCCCCC(=O)OC(CCCCCCCC)CCCCCCCC = 2.66E+07
• CCCCCCCCCOC(=O)CCCCCCCN(CCO)CCCCCCCC(=O)OCCCCCCCCC = 9.47E+04

Then there is this compound:
State its Total Flux, Lung for this compound: CCCCCCCCCOC(=O)CCCCCCCN(CCCCCCCC(=O)OC(CCCCCCCC)CCCCCCCC)C[C@@H](C)O 1.35E+07

* * *

Test: Pharmacokinetic study of lipids in plasma, liver and spleen (compound 18, compound 25, MC3)
Conditions: male, Sprague-Dawley, rat, plasma, iv
observed.property: AUC
Please provide the amount together with its unit, number first.

State its AUC for this compound: CCCCCC=CCC=CCCCCCCCCC(CCCCCCCCC=CCC=CCCCCC)OC(=O)CCCN(C)C (stereo not shown) [MC3, reference compound] 69100 ng·h/mL

* * *

Assay: Particle size and polydispersity index of nanoparticle compositions (Zetasizer Nano ZS)
Assay type: physicochemical
Details: Table 1B; formulated with hEPO mRNA
Kindly state Size for each of the entries shown.
One number for each entry, in nm.

List reported Size for each of these compounds:
1. CCCCCCCCCOC(=O)CCCCCCCN(CCO)CCCCCC(=O)OC1CCC(CCCCC)CC1 (stereo not shown)
2. CCCCCCCCC(C)OC(=O)CCCCCN(CCO)CCCCCCCC(=O)OC(CCCCCCCC)CCCCCCCC (stereo not shown)
3. CCCCCCCCCOC(=O)CCCCCCCN(CCCCCCCC(=O)OC(CCCCCCCC)CCCCCCCC)CCCNC(=O)NC

[150.3, 70.2, 60.6]

State its Size for this compound: CCCC/C=C\CCC(CC/C=C\CCCC)OC(=O)CCCCCCCN(CCO)CCCCCCCC(=O)OCCCCCCCCC 88.9

* * *

Kindly state Total flux 6 hours after intramuscular administration, 0.01 mpk Dose for each of the entries shown.
Tested on: luciferase (Luc) mRNA
Assay: Luciferase expression after intramuscular administration to mice
Format: in vivo
Conditions: Luc mRNA, intramuscular, 0.01 mpk, 6 hours
One number for each entry, in p/s.

Below are worked cases with known answers.
• CCCCCCCCCOC(=O)CCCCCCCN(CCCN)CCCCCCCC(=O)OC(CCCCCCCC)CCCCCCCC [Compound 121] = 1.06E+06
• CCCC/C=C\CCC(CC/C=C\CCCC)OC(=O)CCCCCCCN(CCO)CCCCCCCC(=O)OCCCCCCCCC [Compound 60] = 9.48E+07
• CCCCCC=CCC=CCCCCCCCCC(CCCCCCCCC=CCC=CCCCCC)OC(=O)CCCN(C)C (stereo not shown) [MC3, reference compound] = 3.23E+07

State its Total flux 6 hours after intramuscular administration, 0.01 mpk Dose for this compound: CCCCCCCCCOC(=O)CCCCCCCN(C)CCCCCCCC(=O)OC(CCCCCCCC)CCCCCCCC [Compound 123] 1.08E+07

* * *

System: modified luciferase
Experiment: Luciferase expression in liver, lung, spleen and femur 6 hours after intravenous administration to mice
Type: in vivo
Conditions: lung, 6 hours after intravenous 0.5 mpk, mice
observed.property: Total Flux, Lung
One number for each entry.

Below are worked cases with known answers.
• CCCCCCCCCOC(=O)CCCCCCCN(CCCO)CCCCCCCC(=O)OC(CCCCCCCC)CCCCCCCC = 5.99E+06
• CCCCCCCCCOC(=O)CCCCCCCN(CCO)CCCCCCC/C=C\C(CCCCCCCC)CCCCCCCC = 3.16E+05
• CCCCCCCCCOC(=O)CCCCCCCN(CCO)CCCCCCCC(=O)OC(CC)CC = 4.41E+04

List reported Total Flux, Lung for each of these molecules:
1. CCCCCCCCCOC(=O)CCCCCCCN(CCCCCCCC(=O)OC(CCCCCCCC)CCCCCCCC)CCOC
2. CCCCCCCCC(CC)OC(=O)CCCN(CCO)CCCCCCCC(=O)OC(CCCCCCCC)CCCCCCCC (stereo not shown)
3. CCCCCCCCCOC(=O)CCCCCCCN(CCCCCCCC(=O)OC(CCCCCCCC)CCCCCCCC)C(C)CO (stereo not shown)
4. CCCCCCCCCOC(=O)CCCN(C)CCCCCCCC(=O)OC(CCCCCCCC)CCCCCCCC
5. CCCCCCCCC(CCCCCCCC)OC(=O)CCCCCCCN(CCO)CCCC(=O)OCCCCCCC
6. CCCCCCCCCOC(=O)CCCCCCCN(CCO)CCCCCCCC(=O)OC(CCCCCCCC)CCCCCCCC
7. CCCCCCCCCOC(=O)CCCCCCCN(CCCCCCCC(=O)OC(CCCCCCCC)CCCCCCCC)C1CCCCC1O (stereo not shown)
8. CCCCCC/C=C\COC(=O)CCCCCCCN(CCO)CCCCCCCC(=O)OC/C=C\CCCCCC

["6.41E+04", "1.05E+07", "6.70E+06", "2.68E+06", "1.12E+07", "1.25E+07", "4.73E+05", "5.26E+04"]

List reported Total Flux, Lung for each of these molecules:
1. CCCCCCCCCOC(=O)CCCCCCCN(CCO)CCCCCCCC(=O)OC(C)(C)C
2. CCCCCCCCC(CCC)OC(=O)CCCN(CCO)CCCCCCCC(=O)OC(CCCCCCCC)CCCCCCCC (stereo not shown)
3. CCCCCCCCCOC(=O)CCCCCCCN(CCCCCCCC(=O)OC(CCCCCCCC)CCCCCCCC)CCCNC(=O)N(C)C
4. CCCCCCCCCOC(=O)CCCCCCCN(CCCCCCCC(=O)OC(CCCCCCCC)CCCCCCCC)C[C@H](C)O

1: 1.71E+04; 2: 6.93E+06; 3: 5.76E+06; 4: 7.45E+06

State its Total Flux, Lung for this molecule: CCCCCCCCCOC(=O)CCCCCCCN(CCO)CCCCCCCCCOC(=O)C(CCCCCC)CCCCCCCC (stereo not shown) 2.82E+06
